# Kd listing for each entry below
Molecular target: T1, EsCas13d, nuclease-dead (Eubacterium siraeum, UniProt B0MS50, R295A;H300A;R849A;H854A)
T1 sequence: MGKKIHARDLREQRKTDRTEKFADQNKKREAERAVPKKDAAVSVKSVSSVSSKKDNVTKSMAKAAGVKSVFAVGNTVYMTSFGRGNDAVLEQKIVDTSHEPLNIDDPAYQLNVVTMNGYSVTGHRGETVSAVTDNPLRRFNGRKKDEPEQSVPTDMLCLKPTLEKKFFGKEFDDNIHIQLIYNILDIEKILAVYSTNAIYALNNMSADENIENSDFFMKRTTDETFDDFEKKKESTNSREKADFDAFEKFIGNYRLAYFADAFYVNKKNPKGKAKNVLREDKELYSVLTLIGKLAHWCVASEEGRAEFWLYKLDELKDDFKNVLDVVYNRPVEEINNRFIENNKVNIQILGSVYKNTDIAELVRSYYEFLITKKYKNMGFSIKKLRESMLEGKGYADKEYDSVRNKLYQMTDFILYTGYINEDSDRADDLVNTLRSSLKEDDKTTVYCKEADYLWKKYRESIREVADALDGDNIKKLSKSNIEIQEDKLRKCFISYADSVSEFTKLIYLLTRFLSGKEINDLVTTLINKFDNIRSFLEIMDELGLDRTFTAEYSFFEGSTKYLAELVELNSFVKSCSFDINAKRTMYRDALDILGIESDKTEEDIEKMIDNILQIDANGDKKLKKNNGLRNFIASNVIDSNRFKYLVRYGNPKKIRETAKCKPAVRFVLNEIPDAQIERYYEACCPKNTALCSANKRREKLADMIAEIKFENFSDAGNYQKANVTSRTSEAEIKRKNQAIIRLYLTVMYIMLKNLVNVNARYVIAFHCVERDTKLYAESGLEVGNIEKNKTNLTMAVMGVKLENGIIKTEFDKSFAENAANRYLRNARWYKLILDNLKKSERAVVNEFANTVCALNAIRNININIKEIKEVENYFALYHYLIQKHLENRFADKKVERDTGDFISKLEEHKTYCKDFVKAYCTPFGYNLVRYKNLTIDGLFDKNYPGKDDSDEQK
Test: crRNA (strand 1, pre-loaded); Mg2+; 40 mM Tris-HCl pH 7.5, 150 mM NaCl, 6 mM MgCl2, 1 mM DTT, 0.1% Tween-20, 0.2 mg/ml BSA; 25 C; 10 min per concentration, then washed
Conditions: tags: His6-TwinStrep-SUMO cleaved; N-terminal SNAP kept (SNAP-Surface 488); label: 3' end held by stalled T7 RNA polymerase
Give your result in nM as a bare value.

# example entries with known answers
1) target 1 MT 5'PFS GGG 3'PFS AAA (mixed) RNA 1: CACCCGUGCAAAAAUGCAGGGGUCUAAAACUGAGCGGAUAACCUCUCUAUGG RNA 2: GGGAAUGGAUCCACAUCUACGAAUUCGGGCCAUAGAGAGGUUAUCCGCUCAAAAAGAUCGGAAGAGCACACGU: 50
2) target 1 MT 5'PFS AAA 3'PFS CUG (mixed) RNA 1: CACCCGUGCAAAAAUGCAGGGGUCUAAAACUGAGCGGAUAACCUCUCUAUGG RNA 2: GGGAAUGGAUCCACAUCUACGAAUUCAAACCAUAGAGAGGUUAUCCGCUCACUGAGAUCGGAAGAGCACACGU: 22.5
3) target 3 insG 3' of 6,insU 3' of 5 (mixed) RNA 1: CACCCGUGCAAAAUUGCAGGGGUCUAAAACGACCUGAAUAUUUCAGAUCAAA RNA 2: GGGAAUGGAUCCACAUCUACGAAUUCGUUUUUGAUCUGAAAUAUUCGAUGGUCUGCAGAUCGGAAGAGCACACGU: 7.59

Continue with the next binder.
In one line, give reported Kd of the entry target 1 C7U,C21U (mixed) RNA 1: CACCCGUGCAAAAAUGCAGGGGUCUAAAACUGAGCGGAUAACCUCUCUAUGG RNA 2: GGGAAUGGAUCCACAUCUACGAAUUCGUACUAUAGAGAGGUUAUUCGCUCACCGAGAUCGGAAGAGCACACGU .
6
